Below: a set of entries, each annotated with reported LD50.
Test: acute toxicity (LD50)
Details: mouse, in vivo, iv; mice i.v.
Reported property: LD50

>  <Structure smiles string>
CCn1cc(C(=O)O)c(=O)c2cc3c(nc21)CCO3

>  <Result value>
376 mg/kg

$$$$
>  <Structure smiles string>
CCn1cc(C(=O)O)c(=O)c2cc3occc3nc21

>  <Result value>
221 mg/kg

$$$$

Where do the numbers come from? From patent US4293695A.
